experiment-notes: Tissue distribution and metabolites in nude mice bearing CWR-22Rv1 cancers
Format: in vivo, mouse
run-conditions: male, nude, mouse; liver, 4 hours post oral 5mg/kg tasquinimod, 1gm tissue = 1ml; read-out: concentration in liver
concentration at 4 h by entry:

Quick one: concentration at 4 h for CN(C(=O)c1c(O)c2c(O)cccc2n(C)c1=O)c1ccc(C(F)(F)F)cc1 [Quinoline-O-demethylate] ? 8.1 µM

Quick one: concentration at 4 h for COc1cccc2[nH]c(=O)c(C(=O)N(C)c3ccc(C(F)(F)F)cc3)c(O)c12 [Quinoline-N-demethylate] ? 0.26 µM

Quick one: concentration at 4 h for COc1cccc2c1c(O)c(C(=O)Nc1ccc(C(F)(F)F)cc1)c(=O)n2C [Carboxamide-N-demethylate] ? < 0.13 µM

Okay, next one:
Quick one: concentration at 4 h for COc1cccc2c1c(O)c(C(=O)N(C)c1ccc(C(F)(F)F)cc1)c(=O)n2C [Tasquinimod] ? 3.77 µM
